Reported values of GI50 for individual entries
tested on: OVCAR-5; experiment: Growth inhibition of human OVCAR5 cells incubated for 48 hrs by sulforhodamine B assay; format: functional; settings: OVCAR-5, 48 h
A number alone suffices; assume µM.

| smiles_code | GI50, µM |
| --- | --- |
| COCCn1cc(-c2csc(-c3c[nH]c4ccc(Br)cc34)n2)c2cccnc21 | 4.83 |

Query :: GET /values?readout=GI50&item= COCCn1cc(-c2nc(-c3c[nH]c4ncccc34)cs2)c2cc(OC)ccc21
Result :: 0.61

Query :: # GI50 lookup, item COCCn1cc(-c2csc(-c3c[nH]c4ccc(F)cc34)n2)c2cccnc21
Result :: 10.1

Query :: Which measured GI50 value corresponds to COCCn1cc(-c2csc(-c3c[nH]c4ccccc34)n2)c2cccnc21 ?
Result :: 28.2

====

tested on: MDA-MB-231; assay: Growth inhibition of human MDA-MB-231 cells incubated for 48 hrs by sulforhodamine B assay; assay type: functional; settings: MDA-MB-231, 48 h
property_name: GI50 (nM)
Value expressed in nM; do not type the unit.

Some solved entries appear below for comparison.
| smiles_code | measured_target | readout_unit | GI50 |
| --- | --- | --- | --- |
| COCCn1cc(-c2csc(-c3c[nH]c4ccccc34)n2)c2cccnc21 | MDA-MB-231 | nM | 5050 |
| COCCn1cc(-c2nc(-c3c[nH]c4ncccc34)cs2)c2cc(OC)ccc21 | MDA-MB-231 | nM | 2020 |
| COCCn1cc(-c2csc(-c3c[nH]c4ccc(Br)cc34)n2)c2cccnc21 | MDA-MB-231 | nM | 2650 |

Next compound, please.
Query :: GET /values?readout=GI50&item= COCCn1cc(-c2csc(-c3c[nH]c4ccc(F)cc34)n2)c2cccnc21
Result :: 2590

====

Listed here: items and their measured GI50.
test system: HOP-62; experiment: Growth inhibition of human HOP62 cells incubated for 48 hrs by sulforhodamine B assay; assay type: functional; details: HOP-62, 48 h

Past entries and their recorded results:
| smiles_code | measured_target | GI50 |
| --- | --- | --- |
| COCCn1cc(-c2nc(-c3c[nH]c4ncccc34)cs2)c2cc(OC)ccc21 | HOP-62 | 2.12 µM |
| COCCn1cc(-c2csc(-c3c[nH]c4ccccc34)n2)c2cccnc21 | HOP-62 | 2.82 µM |
| COCCn1cc(-c2csc(-c3c[nH]c4ccc(F)cc34)n2)c2cccnc21 | HOP-62 | 2.02 µM |

Query :: # input molecule: COCCn1cc(-c2csc(-c3c[nH]c4ccc(Br)cc34)n2)c2cccnc21 ; wanted: its GI50
Result :: 7.98 µM

====

system: 786-0; assay: Growth inhibition of human 786-0 cells incubated for 48 hrs by sulforhodamine B assay; type: functional; conditions: 786-0, 48 h
property_name: GI50 (µM)
Give just the numeric value; µM need not be written.

| smiles_code | readout_unit | GI50 |
| --- | --- | --- |
| COCCn1cc(-c2nc(-c3c[nH]c4ncccc34)cs2)c2cc(OC)ccc21 | µM | 3.44 |

Query :: Quick one: GI50 for COCCn1cc(-c2csc(-c3c[nH]c4ccccc34)n2)c2cccnc21 ?
Result :: 6.25

Query :: Entry COCCn1cc(-c2csc(-c3c[nH]c4ccc(F)cc34)n2)c2cccnc21 has what GI50?
Result :: 5.12

Query :: # get_value(readout='GI50', item= COCCn1cc(-c2csc(-c3c[nH]c4ccc(Br)cc34)n2)c2cccnc21 )
Result :: 4.03

====

test system: HT-29; test: Growth inhibition of human HT-29 cells incubated for 48 hrs by sulforhodamine B assay; assay type: functional; conditions: HT-29, 48 h
molecules and their reported GI50
Provide only the numeric value, understood in µM.

Query :: Need GI50 of COCCn1cc(-c2csc(-c3c[nH]c4ccccc34)n2)c2cccnc21 , thanks.
Result :: 3.19

Query :: Param item = COCCn1cc(-c2csc(-c3c[nH]c4ccc(F)cc34)n2)c2cccnc21 ; retrieve measured GI50.
Result :: 2.9

Query :: Could you tell me which GI50 is on file for COCCn1cc(-c2csc(-c3c[nH]c4ccc(Br)cc34)n2)c2cccnc21 ?
Result :: 3.36

Query :: Which value of GI50 has been reported for COCCn1cc(-c2nc(-c3c[nH]c4ncccc34)cs2)c2cc(OC)ccc21 in the records?
Result :: 4.31

====

test system: K562; test: Growth inhibition of human K562 cells incubated for 48 hrs by sulforhodamine B assay; type: functional; conditions: K562, 48 h
We begin with a simple list: items and their reported GI50.
Give your result in µM as a bare value.

| smiles_code | readout_unit | GI50 |
| --- | --- | --- |
| COCCn1cc(-c2csc(-c3c[nH]c4ccccc34)n2)c2cccnc21 | µM | 2.8 |
| COCCn1cc(-c2csc(-c3c[nH]c4ccc(Br)cc34)n2)c2cccnc21 | µM | 3.6 |
| COCCn1cc(-c2nc(-c3c[nH]c4ncccc34)cs2)c2cc(OC)ccc21 | µM | 4.79 |

Query compound follows.
Query :: Fill in: GI50 of COCCn1cc(-c2csc(-c3c[nH]c4ccc(F)cc34)n2)c2cccnc21 is ___
Result :: 2.12

====

target: Cyclin-dependent kinase 1/cyclin B1 (Homo sapiens, UniProt P06493); test: Inhibition of recombinant human full length His-tagged CDK1/cyclin B expressed in baculovirus expression system after 60 mins in presence of omnia peptide substrate by fluorescence based assay
Sequence (P06493 whole entry): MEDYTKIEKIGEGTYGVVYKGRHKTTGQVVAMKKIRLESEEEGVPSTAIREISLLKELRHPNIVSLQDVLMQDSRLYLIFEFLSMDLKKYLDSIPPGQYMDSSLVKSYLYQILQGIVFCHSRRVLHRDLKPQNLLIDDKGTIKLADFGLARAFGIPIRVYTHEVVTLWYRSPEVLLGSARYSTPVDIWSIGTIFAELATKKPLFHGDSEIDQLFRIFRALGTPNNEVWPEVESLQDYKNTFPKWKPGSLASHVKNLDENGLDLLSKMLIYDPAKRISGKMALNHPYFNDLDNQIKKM
Sequence (P14635 whole entry, further chain): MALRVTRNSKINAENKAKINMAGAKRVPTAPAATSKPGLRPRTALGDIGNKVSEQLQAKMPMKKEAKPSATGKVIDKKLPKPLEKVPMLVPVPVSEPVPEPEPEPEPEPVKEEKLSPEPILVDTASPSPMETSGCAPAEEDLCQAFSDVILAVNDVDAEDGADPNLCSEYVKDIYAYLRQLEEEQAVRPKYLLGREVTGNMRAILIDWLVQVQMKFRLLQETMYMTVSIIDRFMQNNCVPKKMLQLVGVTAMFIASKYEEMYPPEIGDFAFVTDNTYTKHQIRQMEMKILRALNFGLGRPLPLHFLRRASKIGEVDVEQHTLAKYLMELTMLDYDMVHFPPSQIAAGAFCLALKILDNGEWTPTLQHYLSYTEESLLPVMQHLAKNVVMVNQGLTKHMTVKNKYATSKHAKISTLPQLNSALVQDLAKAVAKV
property_name: pIC50
A value of pIC50 is the negative decimal logarithm of a concentration given in moles per litre.

| smiles_code | pIC50 |
| --- | --- |
| Cn1cc(-c2nc(-c3cn(C)c4ncccc34)cs2)c2cc(F)ccc21 | 6.01 |

Query :: Look up pIC50 for this molecule: COCCn1cc(-c2nc(-c3c[nH]c4ncccc34)cs2)c2cc(OC)ccc21
Result :: 5.94

====

The entries below come with measured GI50 values attached.
tested on: U-251; assay: Growth inhibition of human U251 cells incubated for 48 hrs by sulforhodamine B assay; format: functional; details: U-251, 48 h
Dear colleague, please return just the value in µM, with no unit written.

| smiles_code | measured_target | result_number |
| --- | --- | --- |
| COCCn1cc(-c2csc(-c3c[nH]c4ccc(Br)cc34)n2)c2cccnc21 | U-251 | 6.18 |
| COCCn1cc(-c2csc(-c3c[nH]c4ccc(F)cc34)n2)c2cccnc21 | U-251 | 5.14 |
| COCCn1cc(-c2nc(-c3c[nH]c4ncccc34)cs2)c2cc(OC)ccc21 | U-251 | 4.43 |

Next, consider the following compound.
Query :: Find the recorded GI50 belonging to COCCn1cc(-c2csc(-c3c[nH]c4ccccc34)n2)c2cccnc21 and report it.
Result :: 6.12

====

tested on: HCT-116; assay: Growth inhibition of human HCT116 cells incubated for 48 hrs by sulforhodamine B assay; assay type: functional; conditions: HCT-116, 48 h
property_name: GI50 (µM)
Just the number please, in µM, no unit attached.

Worked examples follow.
| smiles_code | GI50 (µM) |
| --- | --- |
| COCCn1cc(-c2csc(-c3c[nH]c4ccccc34)n2)c2cccnc21 | 3.63 |
| COCCn1cc(-c2csc(-c3c[nH]c4ccc(Br)cc34)n2)c2cccnc21 | 3.84 |
| COCCn1cc(-c2csc(-c3c[nH]c4ccc(F)cc34)n2)c2cccnc21 | 3.77 |

Here is another molecule to look at.
Query :: I am curious: what GI50 value has been reported for COCCn1cc(-c2nc(-c3c[nH]c4ncccc34)cs2)c2cc(OC)ccc21 ?
Result :: 4.55

====

system: NCI-H23; test: Growth inhibition of human NCI-H23 cells incubated for 48 hrs by sulforhodamine B assay; assay type: functional; settings: NCI-H23, 48 h
property_name: GI50 (µM)
API: value field is a number in µM; no unit string.

| smiles_code | readout_unit | GI50 |
| --- | --- | --- |
| COCCn1cc(-c2nc(-c3c[nH]c4ncccc34)cs2)c2cc(OC)ccc21 | µM | 1.63 |

Query :: For the compound shown here, COCCn1cc(-c2csc(-c3c[nH]c4ccc(F)cc34)n2)c2cccnc21 , give the reported GI50.
Result :: 3.88

Query :: Fill in the blank: the reported GI50 of COCCn1cc(-c2csc(-c3c[nH]c4ccccc34)n2)c2cccnc21 is ____.
Result :: 4.58

Query :: Need GI50 of COCCn1cc(-c2csc(-c3c[nH]c4ccc(Br)cc34)n2)c2cccnc21 , thanks.
Result :: 3.21

====

test system: SK-MEL-2; experiment: Growth inhibition of human SK-MEL-2 cells incubated for 48 hrs by sulforhodamine B assay; assay type: functional; conditions: SK-MEL-2, 48 h
property_name: GI50 (µM)
Numeric only. Scale: µM

See these solved cases before continuing.
| smiles_code | GI50, µM |
| --- | --- |
| COCCn1cc(-c2nc(-c3c[nH]c4ncccc34)cs2)c2cc(OC)ccc21 | 3.56 |
| COCCn1cc(-c2csc(-c3c[nH]c4ccc(Br)cc34)n2)c2cccnc21 | 6.82 |
| COCCn1cc(-c2csc(-c3c[nH]c4ccc(F)cc34)n2)c2cccnc21 | 3.89 |

Continue with the compound presented below.
Query :: Recorded GI50 of COCCn1cc(-c2csc(-c3c[nH]c4ccccc34)n2)c2cccnc21 , please.
Result :: 7.38
